Each recorded value in this set is attributed to patent US9067881B2.

- Tested system: human mGluR5 (Homo sapiens, UniProt P41594)
- Construct: expressed in transfected cells
- Sequence (P41594 21-1180 isoform P41594-2 limits assumed): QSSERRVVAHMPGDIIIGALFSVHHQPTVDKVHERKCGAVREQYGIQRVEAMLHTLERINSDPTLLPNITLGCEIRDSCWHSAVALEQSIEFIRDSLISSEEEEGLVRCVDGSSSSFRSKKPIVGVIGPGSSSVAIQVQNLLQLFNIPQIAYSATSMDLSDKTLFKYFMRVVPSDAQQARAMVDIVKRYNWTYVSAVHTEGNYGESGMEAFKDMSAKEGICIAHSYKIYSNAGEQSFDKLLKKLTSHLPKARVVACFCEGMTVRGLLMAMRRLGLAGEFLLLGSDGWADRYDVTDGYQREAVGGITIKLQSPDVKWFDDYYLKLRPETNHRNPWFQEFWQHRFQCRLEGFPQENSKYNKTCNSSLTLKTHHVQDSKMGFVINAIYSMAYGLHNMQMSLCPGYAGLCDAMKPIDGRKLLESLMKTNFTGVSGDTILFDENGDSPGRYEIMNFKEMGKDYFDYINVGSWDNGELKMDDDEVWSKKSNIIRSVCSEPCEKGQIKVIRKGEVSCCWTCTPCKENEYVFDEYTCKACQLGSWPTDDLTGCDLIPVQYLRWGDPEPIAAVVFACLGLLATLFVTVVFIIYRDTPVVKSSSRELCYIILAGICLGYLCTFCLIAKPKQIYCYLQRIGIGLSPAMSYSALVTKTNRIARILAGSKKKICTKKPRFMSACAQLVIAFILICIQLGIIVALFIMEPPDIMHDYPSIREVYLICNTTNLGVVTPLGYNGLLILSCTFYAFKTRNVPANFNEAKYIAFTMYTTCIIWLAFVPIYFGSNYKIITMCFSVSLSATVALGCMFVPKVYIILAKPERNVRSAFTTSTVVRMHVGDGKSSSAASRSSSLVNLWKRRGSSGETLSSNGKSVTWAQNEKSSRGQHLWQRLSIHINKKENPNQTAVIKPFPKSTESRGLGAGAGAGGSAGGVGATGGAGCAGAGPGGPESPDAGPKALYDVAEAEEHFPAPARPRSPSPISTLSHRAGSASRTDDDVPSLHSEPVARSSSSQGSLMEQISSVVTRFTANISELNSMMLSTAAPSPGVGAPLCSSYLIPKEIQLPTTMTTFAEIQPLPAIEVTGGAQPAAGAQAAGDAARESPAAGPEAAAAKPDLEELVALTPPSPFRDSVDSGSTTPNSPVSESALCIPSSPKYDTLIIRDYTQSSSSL
- Assay remarks: In-vitro activity of mGluR5 antagonists (inhibition of agonist induced elevation of intracellular Ca2+ or inositol phosphate turnover at recombinant human mGluR5)
- Assay type: cell-based
- Test context: recombinant human mGluR5, antagonism
Property label: IC50 (nM)

- CCOC(=O)N1CC[C@@H]2[C@H]1CCC[C@@]2(O)C#Cc1cccc(C)c1 [Example 2.0]: 42

---

- Assay remarks: In-vitro clearance in rat liver microsomes (metabolic stability, compound depletion)
Returns 1.0 if the recorded microsomal CLint at 1 μM is greater than or equal to 200 µL/min/mg, and 0.0 otherwise.

* COC(=O)N1CC[C@@H]2[C@H]1CCC[C@@]2(O)C#Cc1cccc(C)c1 [Example 1.0, reference compound] | 1.0
* COC(=O)N1CC[C@@H]2[C@H]1CCC[C@]2(C#Cc1cccc(C)c1)OC(=O)c1ccccn1 [Example 54] | 0.0
* CCCCCCC(=O)O[C@@]1(C#Cc2cccc(C)c2)CCC[C@@H]2[C@H]1CCN2C(=O)OC [Example 23] | 0.0
* COC(=O)N1CC[C@@H]2[C@H]1CCC[C@]2(C#Cc1cccc(C)c1)OC(=O)c1c(C)cc(C)cc1C [Example 53] | 0.0
* COC(=O)N1CC[C@@H]2[C@H]1CCC[C@]2(C#Cc1cccc(C)c1)OC(=O)[C@@H](N)c1ccccc1 [Example 41] | 1.0
* COC(=O)N1CC[C@@H]2[C@H]1CCC[C@]2(C#Cc1cccc(C)c1)OC(=O)c1ccncc1 [Example 45] | 1.0
* COC(=O)N1CC[C@@H]2[C@H]1CCC[C@]2(C#Cc1cccc(C)c1)OC(=O)c1cccnc1 [Example 51] | 1.0

---

- Assay remarks: Solubility in Cl free phosphate buffer pH 6.8
- Assay type: physicochemical
- Test context: aqueous buffer; Cl free phosphate buffer (0.067 M) pH 6.8
Documented solubility across a set of molecules
Property label: solubility (µg/mL)

• COC(=O)N1CC[C@@H]2[C@H]1CCC[C@@]2(O)C#Cc1cccc(C)c1 [Example 1.0, reference compound] = 51
• COC(=O)CCCC(=O)O[C@@]1(C#Cc2cccc(C)c2)CCC[C@@H]2[C@H]1CCN2C(=O)OC = 97
• CNC(=O)CCC(=O)O[C@@]1(C#Cc2cccc(C)c2)CCC[C@@H]2[C@H]1CCN2C(=O)OC = 87
• COC(=O)N1CC[C@@H]2[C@H]1CCC[C@]2(C#Cc1cccc(C)c1)OC(=O)CCCC(=O)NC(C)C = 28

---

- Assay remarks: Solubility in Cl free phosphate buffer pH 6.8
- Assay type: physicochemical
- Test context: aqueous buffer; Cl free phosphate buffer (0.067 M) pH 6.8
Property label: solubility (µg/mL)

- COC(=O)N1CC[C@@H]2[C@H]1CCC[C@]2(C#Cc1cccc(C)c1)OC(=O)CC(N)=O: 110
- COC(=O)N1CC[C@@H]2[C@H]1CCC[C@]2(C#Cc1cccc(C)c1)OC(=O)CCN1CCCC1: 439
- CCNC(=O)CCCC(=O)O[C@@]1(C#Cc2cccc(C)c2)CCC[C@@H]2[C@H]1CCN2C(=O)OC: 386
- CCN(CC)C(=O)CCC(=O)O[C@@]1(C#Cc2cccc(C)c2)CCC[C@@H]2[C@H]1CCN2C(=O)OC: 19
- COC(=O)N1CC[C@@H]2[C@H]1CCC[C@]2(C#Cc1cccc(C)c1)OC(=O)CCC(=O)N1CCCC1: 27
- CCCNC(=O)CCCC(=O)O[C@@]1(C#Cc2cccc(C)c2)CCC[C@@H]2[C@H]1CCN2C(=O)OC: 32
- CCCN(CCC)C(=O)CCC(=O)O[C@@]1(C#Cc2cccc(C)c2)CCC[C@@H]2[C@H]1CCN2C(=O)OC: 43
- COC(=O)CC(=O)O[C@@]1(C#Cc2cccc(C)c2)CCC[C@@H]2[C@H]1CCN2C(=O)OC: 100
- COCC(=O)O[C@@]1(C#Cc2cccc(C)c2)CCC[C@@H]2[C@H]1CCN2C(=O)OC: 47
- CCCC(=O)O[C@@]1(C#Cc2cccc(C)c2)CCC[C@@H]2[C@H]1CCN2C(=O)OC: 2
- COC(=O)N1CC[C@@H]2[C@H]1CCC[C@]2(C#Cc1cccc(C)c1)OC(=O)CCCC(N)=O: 93

---

- Assay remarks: Solubility in Cl free phosphate buffer pH 6.8
- Type: physicochemical
- Test context: aqueous buffer; Cl free phosphate buffer (0.067 M) pH 6.8
In this section, each of the compounds is paired with its reported log10 solubility.
Property label: log10 solubility (log10 of the value in µg/mL)

* CCC(=O)O[C@@]1(C#Cc2cccc(C)c2)CCC[C@@H]2[C@H]1CCN2C(=O)OC | 0.95
* COC(=O)N1CC[C@@H]2[C@H]1CCC[C@]2(C#Cc1cccc(C)c1)OC(=O)[C@@H](N)c1ccccc1 | 0.48
* CCCNC(=O)CCC(=O)O[C@@]1(C#Cc2cccc(C)c2)CCC[C@@H]2[C@H]1CCN2C(=O)OC | 1.52
* COC(=O)CCC(=O)O[C@@]1(C#Cc2cccc(C)c2)CCC[C@@H]2[C@H]1CCN2C(=O)OC | 2.21
* CNC(=O)CC(=O)O[C@@]1(C#Cc2cccc(C)c2)CCC[C@@H]2[C@H]1CCN2C(=O)OC | 1.04
* COC(=O)N1CC[C@@H]2[C@H]1CCC[C@]2(C#Cc1cccc(C)c1)OC(=O)CN | 2.10

---

- Assay remarks: In-vitro clearance in human liver microsomes (metabolic stability, compound depletion)
Property label: microsomal CLint at 1 μM (µL/min/mg)

* COC(=O)N1CC[C@@H]2[C@H]1CCC[C@]2(C#Cc1cccc(C)c1)OC(=O)CCN | 36
* COC(=O)N1CC[C@@H]2[C@H]1CCC[C@]2(C#Cc1cccc(C)c1)OC(=O)[C@H](C)N | 315
* COC(=O)N1CC[C@@H]2[C@H]1CCC[C@]2(C#Cc1cccc(C)c1)OC(=O)CCN1CCCC1 | 660
* COC(=O)N1CC[C@@H]2[C@H]1CCC[C@]2(C#Cc1cccc(C)c1)OC(=O)CCN1CCOCC1 | 94
* COC(=O)N1CC[C@@H]2[C@H]1CCC[C@]2(C#Cc1cccc(C)c1)OC(=O)CN | 187
* CNCC(=O)O[C@@]1(C#Cc2cccc(C)c2)CCC[C@@H]2[C@H]1CCN2C(=O)OC | 433
* CCCCCCCCCCCCCC(=O)O[C@@]1(C#Cc2cccc(C)c2)CCC[C@@H]2[C@H]1CCN2C(=O)OC | 33

---

- Assay remarks: Solubility in Cl free phosphate buffer pH 6.8
- Type: physicochemical
- Test context: aqueous buffer; Cl free phosphate buffer (0.067 M) pH 6.8
Tag: MET if measured solubility is not below 100 µg/mL, NOT MET if it is.

- COC(=O)N1CC[C@@H]2[C@H]1CCC[C@]2(C#Cc1cccc(C)c1)OC(=O)CN1CCOCC1 [Example 26]: MET
- COC(=O)N1CC[C@@H]2[C@H]1CCC[C@]2(C#Cc1cccc(C)c1)OC(=O)CCN1CCOCC1 [Example 27]: MET
- COC(=O)N1CC[C@@H]2[C@H]1CCC[C@]2(C#Cc1cccc(C)c1)OC(=O)c1cccnc1 [Example 51]: NOT MET
- CCNC(=O)CCC(=O)O[C@@]1(C#Cc2cccc(C)c2)CCC[C@@H]2[C@H]1CCN2C(=O)OC [Example 67]: MET
- COC(=O)N1CC[C@@H]2[C@H]1CCC[C@]2(C#Cc1cccc(C)c1)OC(=O)c1ccccn1 [Example 54]: NOT MET
- CCCCC(=O)O[C@@]1(C#Cc2cccc(C)c2)CCC[C@@H]2[C@H]1CCN2C(=O)OC [Example 22]: NOT MET
- CCCCCCCCCCCCC(=O)O[C@@]1(C#Cc2cccc(C)c2)CCC[C@@H]2[C@H]1CCN2C(=O)OC [Example 25]: NOT MET
- COC(=O)N1CC[C@@H]2[C@H]1CCC[C@]2(C#Cc1cccc(C)c1)OC(C)=O [Example 13]: NOT MET
- CCCCCCCCCCCCCC(=O)O[C@@]1(C#Cc2cccc(C)c2)CCC[C@@H]2[C@H]1CCN2C(=O)OC [Example 16]: NOT MET
- CCCCCCCCCC(=O)O[C@@]1(C#Cc2cccc(C)c2)CCC[C@@H]2[C@H]1CCN2C(=O)OC [Example 20]: NOT MET

---

- Assay remarks: In-vitro clearance in rat liver microsomes (metabolic stability, compound depletion)
Where microsomal CLint at 1 μM equals or exceeds 300 µL/min/mg, the correct label is criterion met; where it does not, the label is criterion not met.

• CN[C@@H](C)C(=O)O[C@@]1(C#Cc2cccc(C)c2)CCC[C@@H]2[C@H]1CCN2C(=O)OC = criterion not met
• CCCCCCCCCCCCCC(=O)O[C@@]1(C#Cc2cccc(C)c2)CCC[C@@H]2[C@H]1CCN2C(=O)OC = criterion not met
• COC(=O)N1CC[C@@H]2[C@H]1CCC[C@]2(C#Cc1cccc(C)c1)OC(=O)CCN1CCOCC1 = criterion met
• CCCN(CCC)C(=O)CCC(=O)O[C@@]1(C#Cc2cccc(C)c2)CCC[C@@H]2[C@H]1CCN2C(=O)OC = criterion not met
• COC(=O)N1CC[C@@H]2[C@H]1CCC[C@]2(C#Cc1cccc(C)c1)OC(=O)c1ccc(Br)cc1 = criterion not met
• COC(=O)N1CC[C@@H]2[C@H]1CCC[C@]2(C#Cc1cccc(C)c1)OC(=O)CCCN(C)C = criterion met
• CCC(=O)O[C@@]1(C#Cc2cccc(C)c2)CCC[C@@H]2[C@H]1CCN2C(=O)OC = criterion not met
• CCCCCCCCC(=O)O[C@@]1(C#Cc2cccc(C)c2)CCC[C@@H]2[C@H]1CCN2C(=O)OC = criterion not met
• CCCCCCCCCCCC(=O)O[C@@]1(C#Cc2cccc(C)c2)CCC[C@@H]2[C@H]1CCN2C(=O)OC = criterion not met
• COC(=O)N1CC[C@@H]2[C@H]1CCC[C@]2(C#Cc1cccc(C)c1)OC(=O)CN1CCOCC1 = criterion met
• COC(=O)N1CC[C@@H]2[C@H]1CCC[C@]2(C#Cc1cccc(C)c1)OC(=O)[C@@H](N)Cc1ccccc1 = criterion not met
• COC(=O)N1CC[C@@H]2[C@H]1CCC[C@]2(C#Cc1cccc(C)c1)OC(=O)CN(C)C = criterion not met
• CCC[C@H](N)C(=O)O[C@@]1(C#Cc2cccc(C)c2)CCC[C@@H]2[C@H]1CCN2C(=O)OC = criterion met
• COC(=O)N1CC[C@@H]2[C@H]1CCC[C@]2(C#Cc1cccc(C)c1)OC(=O)c1cccc(C)c1 = criterion not met
